# EXPERIMENTAL_TARGET: HLA-A*24:02
# TEST_DETAILS: IEDB peptide-MHC binding, purified MHC/competitive/radioactivity; filed as Kd, often an IC50 or EC50 that approximates it; bounds were set here for any values at or beyond the usual limits of such assays
# EXPERIMENTAL_PARAMETERS: source organism: SARS coronavirus Tor2
RECORDED_METRIC: Kd

Here's what some known entries look like.
{"columns": ["BIOSEQUENCE", "EXPERIMENTAL_TARGET", "Kd"],
 "data": [
  ["PFVVSTGYHF", "HLA-A*24:02", "0.0679 µM"],
  ["HYVRITGLY", "HLA-A*24:02", "≥ 22.7 µM"],
  ["LTKHPNQEY", "HLA-A*24:02", "≥ 77.6 µM"]
]}

Assign Kd to the following record: PVDEYITTY
≥ 77.6 µM

Assign Kd to the following record: AFLPFTLGI
≥ 81.8 µM

Assign Kd to the following record: LFFFVYENAF
0.185 µM

Assign Kd to the following record: NKDGFLYVY
≥ 77.6 µM

Assign Kd to the following record: PYPDPSRIL
≥ 83.3 µM

Assign Kd to the following record: IYNEKVAGF
≥ 26.6 µM

Assign Kd to the following record: VYDPLQPEL
≥ 44.8 µM

Assign Kd to the following record: LYIIKLVFL
0.000268 µM
